Sourced from patent US6686394B1

- System: CHO
- procedure.details: Cytotoxicity assay G50, MTT or resazurin (Example 29)
- Format: cell-based, Chinese Hamster
- condition.notes: Cricetulus griseus; cell line CHO
reported.property: pIC50
// pIC50: -log10(molar conc.)

CCCCCCOc1ccc(NC(=O)N[C@@H](CC)CCl)cc1 :: 5.48
CCCCCCCc1ccc(NC(=O)N[C@@H](CC)CCl)cc1 :: 5.38

Consider now this further compound.
Req: pIC50 lookup needed for `CCCCCCOc1ccc(NC(=O)N[C@H](C)CCl)cc1` , thanks.
Resp: 5.58

---

- Test system: DU-145
- procedure.details: Cytotoxicity assay C50/G50, MTT or resazurin (Example 16)
- Assay type: cell-based
- condition.notes: day-3
reported.property: C50 (concentration needed to kill 50% of the cellular population present at the beginning)
Please answer using the number first and the unit second.

CC[C@H](CCl)NC(=O)Nc1ccc(C2CCCCC2)cc1 :: 22.2 µM
CCCCCCc1ccc(NC(=O)N[C@@H](C)CCl)cc1 :: 11.8 µM

Req: C50 (concentration needed to kill 50% of the cellular population present at the beginning) lookup needed for `CCCCCCc1ccc(NC(=O)N[C@@H](CC)CCl)cc1` , thanks.
Resp: 15.8 µM

Req: C50 (concentration needed to kill 50% of the cellular population present at the beginning) lookup needed for `CC[C@@H](CCl)NC(=O)Nc1ccc(C2CCCCC2)cc1` , thanks.
Resp: 16.2 µM

---

- System: MDA-MB-231
- procedure.details: Cytotoxicity assay C50/G50, MTT or resazurin (Example 16)
- Format: cell-based, human
- condition.notes: day-3
# label = condition met if C50 (concentration needed to kill 50% of the cellular population present at the beginning) >= 40 µM else condition not met

Take a look at these entries with their results.
C[C@H](CCl)NC(=O)Nc1ccc(C2CCCCC2)cc1 :: condition met
CCCCCCc1ccc(NC(=O)N[C@H](C)CCl)cc1 :: condition met
CC[C@@H](CCl)NC(=O)Nc1ccc(C2CCCCC2)cc1 :: condition not met
CCCCCCc1ccc(NC(=O)NC(CCl)CCC)cc1 (racemic) :: condition not met

Req: Dear colleague, could you confirm whether `CCCCCCc1ccc(NC(=O)N[C@@H](C)CCl)cc1` has C50 (concentration needed to kill 50% of the cellular population present at the beginning) at or above 40 µM?
Resp: condition not met

Req: Dear colleague, could you confirm whether `CCCCCCc1ccc(NC(=O)N[C@@H](CC)CCl)cc1` has C50 (concentration needed to kill 50% of the cellular population present at the beginning) at or above 40 µM?
Resp: condition not met

Req: Dear colleague, could you confirm whether `C[C@@H](CCl)NC(=O)Nc1ccc(C2CCCCC2)cc1` has C50 (concentration needed to kill 50% of the cellular population present at the beginning) at or above 40 µM?
Resp: condition met

---

- Test system: CHO
- procedure.details: Cytotoxicity assay G50, MTT or resazurin (Example 29)
- Assay type: cell-based, Chinese Hamster
- condition.notes: Cricetulus griseus; cell line CHO
# reported pIC50; entries follow
// pIC50: -log10(molar conc.)

Here are 5 molecules together with their reported answers.
CCCCCCCc1ccc(NC(=O)N[C@H](C)CCl)cc1 :: 5.46
CCCC(CCl)NC(=O)Nc1ccc(C2CCCCC2)cc1 (racemic) :: 5.67
CCCCCCCc1ccc(NC(=O)N[C@H](CC)CCl)cc1 :: 5.50
CCCCCCCc1ccc(NC(=O)N[C@@H](C)CCl)cc1 :: 5.42
CCCCCCOc1ccc(NC(=O)N[C@@H](C)CCl)cc1 :: 5.44

Consider now this further molecule.
Req: pIC50 lookup needed for `COc1ccc(NC(=O)N[C@H](C)CCl)cc1OC` , thanks.
Resp: 4.49
